B1: Twister Ribozyme (parent)
chain: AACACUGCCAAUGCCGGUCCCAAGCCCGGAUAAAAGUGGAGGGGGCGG

- Variants of: B1
- test description: self-cleavage, relative activity (ratio to wild type); higher = more cleavage; co-transcriptional
self-cleavage reference
The reply should be a number, written without any unit.

[in] What does the data say about its self-cleavage? Entry: C14G A22C
[out] 0.372

[in] Entry A1U U12G has what self-cleavage?
[out] 0.0921

[in] Quick check: self-cleavage of A2U A22C ?
[out] 0.311

[in] I have this variant here, C15A G43U , and I need its recorded self-cleavage.
[out] 0.258

[in] Requested read-out: self-cleavage. Entry: A4U G47C
[out] 0.111

[in] Look at this variant and give its reported self-cleavage. A2C A10U
[out] 0.0864

[in] Can you share its self-cleavage? I mean this variant: A23U U37A
[out] 0.178

[in] Please give the measured self-cleavage for this variant: G16U G47C
[out] 0.426

These entries and their values trace back to the RNAGym collection of RNA variant scans (doi:10.7554/elife.80360).
